Kindly supply the reported IC50 values for the records listed here.

q: Query the reported IC50 for UniProt:P42681; item: O=C(CNc1cc(Cl)cc(Cl)c1)N1CCC[C@@H](Nc2ncnc3[nH]ccc23)C1 [Compound 220]
Sequence (P42681 whole entry): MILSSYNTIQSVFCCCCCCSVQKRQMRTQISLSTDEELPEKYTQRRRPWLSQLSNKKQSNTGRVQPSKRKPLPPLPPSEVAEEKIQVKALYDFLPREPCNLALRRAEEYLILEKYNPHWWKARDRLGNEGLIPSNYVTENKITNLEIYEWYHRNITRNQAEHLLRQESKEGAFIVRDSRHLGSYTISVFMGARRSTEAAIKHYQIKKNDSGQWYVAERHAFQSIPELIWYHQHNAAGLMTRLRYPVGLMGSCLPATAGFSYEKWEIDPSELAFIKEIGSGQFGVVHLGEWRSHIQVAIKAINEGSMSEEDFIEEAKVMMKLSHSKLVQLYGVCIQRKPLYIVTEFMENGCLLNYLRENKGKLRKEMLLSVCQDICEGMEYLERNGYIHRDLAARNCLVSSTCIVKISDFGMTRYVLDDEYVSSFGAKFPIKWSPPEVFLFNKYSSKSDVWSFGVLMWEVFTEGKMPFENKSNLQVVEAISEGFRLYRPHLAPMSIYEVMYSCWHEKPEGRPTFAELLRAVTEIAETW
a: > 10 µM

q: Form field: IC50 recorded for CC(C)CN(CC(C)C)S(=O)(=O)c1ccccc1NCC(=O)N1CCC[C@@H](Nc2ncnc3[nH]ncc23)C1 [Compound 217] with UniProt:P42681 (enter value)
a: 1 to 10 µM

q: Form: Entry = CC[C@@H](Nc1cc(Cl)cc(Cl)c1)C(=O)N1CCC2CCN(c3ncnc4[nH]ccc34)C2C1 (stereo partly shown) [Compound 99] | System = UniProt:P42681 | IC50 = ____
a: 1 to 10 µM

q: Param readout= IC50; system= UniProt:P42681; entry= O=C(CNc1cc(Cl)cc(Cl)c1)N1CCC[C@@H](Nc2ncnc3[nH]ncc23)C1 [Compound 222] ; returns value.
a: > 10 µM

q: Identify the measured IC50 of O=C([C@H](Nc1cc(Cl)cc(Cl)c1)C1CC1)N1CCC2CCN(c3ncnc4[nH]ccc34)C2C1 (stereo partly shown) [Compound 176] for UniProt:P42681.
a: 1 to 10 µM

q: Enter reported IC50 observed with UniProt:P42681 for CCC[C@@H](Nc1cc(F)cc(Cl)c1)C(=O)N1CCC2CCN(c3ncnc4[nH]ccc34)C2C1 (stereo partly shown) [Compound 100]
a: 1 to 10 µM

q: IC50 of CN(c1ncnc2[nH]ccc12)C1CCCCN(C(=O)CNc2cc(Cl)cc(Cl)c2)C1 (stereo not shown) [Compound 143] on UniProt:P42681?
a: > 10 µM

----------
Experimental Readout: IC50

q: Param readout = IC50; param system = BTK (Homo sapiens, UniProt Q06187); param query = CC[C@@H](Nc1cc(Cl)cc(Cl)c1)C(=O)N1CCCC(Nc2ncnc3[nH]ncc23)C1C (stereo partly shown) ; response: value
Sequence (Q06187 whole entry): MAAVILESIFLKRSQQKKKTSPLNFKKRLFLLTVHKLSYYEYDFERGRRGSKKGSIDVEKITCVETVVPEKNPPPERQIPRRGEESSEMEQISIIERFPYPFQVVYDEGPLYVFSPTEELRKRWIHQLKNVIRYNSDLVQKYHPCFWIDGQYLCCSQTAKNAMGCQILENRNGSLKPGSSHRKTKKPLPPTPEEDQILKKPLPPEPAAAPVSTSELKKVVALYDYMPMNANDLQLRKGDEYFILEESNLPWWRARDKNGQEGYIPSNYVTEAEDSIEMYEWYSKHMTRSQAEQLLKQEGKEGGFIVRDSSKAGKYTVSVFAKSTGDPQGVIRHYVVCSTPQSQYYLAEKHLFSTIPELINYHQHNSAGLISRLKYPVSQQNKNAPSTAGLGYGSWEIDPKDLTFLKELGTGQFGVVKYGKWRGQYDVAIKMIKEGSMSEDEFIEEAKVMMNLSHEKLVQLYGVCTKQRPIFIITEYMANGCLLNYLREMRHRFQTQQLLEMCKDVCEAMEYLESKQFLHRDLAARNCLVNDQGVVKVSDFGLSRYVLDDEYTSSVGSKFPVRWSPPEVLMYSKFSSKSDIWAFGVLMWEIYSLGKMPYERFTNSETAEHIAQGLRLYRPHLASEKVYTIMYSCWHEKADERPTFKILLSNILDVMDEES
a: < 100 nM

q: Record O=C(CNc1cc(Cl)cc(Cl)c1)N1CCCC(N(CCN2CCOCC2)c2ncnc3[nH]ccc23)C1 (stereo not shown) : what is its IC50 with BTK (Homo sapiens, UniProt Q06187)?
a: 100 to 999 nM

q: Notebook: pull reported IC50 for BTK (Homo sapiens, UniProt Q06187), entry CN(C)C(=O)CN(c1ncnc2[nH]ccc12)[C@@H]1CCCN(C(=O)CNc2cc(Cl)cc(Cl)c2)C1
a: 100 to 999 nM

q: Identify the measured IC50 of O=C1C(Nc2cc(F)cc(Cl)c2)CC2CCC(Nc3ncnc4[nH]ccc34)CN12 (stereo not shown) for BTK (Homo sapiens, UniProt Q06187).
a: 1000 to 10000 nM

q: Tell me reported IC50 for O=C(CNc1cc(Cl)cc(C(F)(F)F)c1)N1CCC[C@H](Nc2ncnc3[nH]ncc23)C1 , tested with BTK (Homo sapiens, UniProt Q06187).
a: 1000 to 10000 nM

q: Find the measured IC50: item O=C(CNC1CCCC1)N1CCC[C@H](Nc2ncnc3[nH]ccc23)C1 , target or system BTK (Homo sapiens, UniProt Q06187).
a: > 10000 nM

q: Which IC50 is reported with BTK (Homo sapiens, UniProt Q06187) for this entry: O=C(CNc1cccc(Cl)c1)N1CCCC(Nc2ncnc3[nH]ccc23)C1C(F)(F)F (stereo not shown) ?
a: < 100 nM

q: # query: IC50 | item CN(c1cc(N)ncn1)[C@H]1CCCN(C(=O)CNc2cc(Cl)cc(Cl)c2)C1 | system: BTK (Homo sapiens, UniProt Q06187)
a: > 10000 nM

q: Give IC50 (BTK (Homo sapiens, UniProt Q06187)) of the following compound: O=C(CNc1cc(Cl)cc(Cl)c1)N1CCC[C@H](Nc2ncnc3scnc23)C1
a: > 10000 nM

q: Give BTK (Homo sapiens, UniProt Q06187) IC50 for C[C@@H](Nc1cc(Cl)cc(Cl)c1)C(=O)N1CCC[C@H](Nc2ncnc3[nH]ccc23)C1
a: 100 to 999 nM

q: BTK (Homo sapiens, UniProt Q06187) / IC50 / NC(=O)c1cnc2[nH]ccc2c1N[C@H]1CCCN(C(=O)CNc2cc(Cl)cc(Cl)c2)[C@H]1C(F)(F)F : value?
a: < 100 nM

q: What value of IC50 on BTK (Homo sapiens, UniProt Q06187) does CN(c1ncnc2[nH]ncc12)[C@H]1CCCN(C(=O)CNc2cc(F)cc(Cl)c2)C1 have?
a: 1000 to 10000 nM

q: Provide the documented IC50 with BTK (Homo sapiens, UniProt Q06187) as the system for C[C@H]1[C@@H](Nc2ncnc3[nH]ncc23)CCCN1C(=O)CNc1cc(F)cc(Cl)c1
a: 100 to 999 nM

q: What is its IC50 for BTK (Homo sapiens, UniProt Q06187)? Entry: O=C(CNc1cc(Cl)cc(Cl)c1)N1CCC[C@H](N(CCc2ccccc2)c2ncnc3[nH]ccc23)C1
a: > 10000 nM

q: Find IC50 (BTK (Homo sapiens, UniProt Q06187)) for the entry O=C(CNc1cc(Cl)cc(Cl)c1)N1CCC[C@H](Nc2ncnc3[nH]cnc23)C1
a: 100 to 999 nM

q: Param readout = IC50; param system = BTK (Homo sapiens, UniProt Q06187); param query = C[C@H]1[C@H](Nc2ncnc3[nH]ncc23)CCCN1C(=O)CNc1cc(F)cc(Cl)c1 ; response: value
a: 100 to 999 nM
